# IC50 per entry
SUBJECT OF TEST: HPK1 (MAP4K1) (Homo sapiens)

Past entries and their recorded results:
COMPOUND: CNc1ncc2c(n1)N1CCN=C1C(c1cc(NC(=O)Nc3cccc(C(F)(F)F)c3)c(F)cc1C)=C2 [Compound 330]
REPORTED RESULT: 0.1 to 10 µM

COMPOUND: CNc1ncc2c(n1)N1CCN=C1C(c1cc(NC(=O)c3cncc(C(F)(F)F)n3)ccc1C)=C2 [Compound 146]
REPORTED RESULT: > 10 µM

COMPOUND: Cc1cc(Nc2ncc3c(n2)N2CCN=C2C(c2cc(NC(=O)c4cc(C(F)(F)F)ccn4)ccc2C)=C3)ccn1 [Compound 212]
REPORTED RESULT: < 0.1 µM

For the compound CNc1ncc2c(n1)N1C(=NC[C@H]1C)C(c1cc(NC(=O)c3cc(C(F)(F)F)ccn3)ccc1C)=C2 [Compound 129] , give its reported IC50. 0.1 to 10 µM

For the compound CNc1nc(C)c2c(n1)N1CCN=C1C(c1cc(NC(=O)c3cc(C(F)(F)F)ccn3)ccc1Cl)=C2 [Compound 123] , give its reported IC50. > 10 µM

For the compound CNc1ncc2c(n1)N1CCN=C1C(c1cc(NC(=O)c3cc(C(F)(F)F)ccn3)ccc1F)=C2C [Compound 121] , give its reported IC50. 0.1 to 10 µM

For the compound CNc1ncc2c(n1)N1CCN=C1C(c1cc(NC(=O)c3cc(C(C)(C)C#N)ccn3)ccc1C)=C2 [Compound 163] , give its reported IC50. < 0.1 µM

###

MEASUREMENT PROTOCOL: Mouse pharmacokinetics study (intravenous and oral)
Type: in vivo
REPORTED CONDITIONS: CD-1 mice, PO 25 mg/kg
# F per entry
I only need the number, in %, no unit after it.

Past entries and their recorded results:
SMILES ENTRY: Cc1cc(F)c(NC(=O)c2cc(C(C)(C)C#N)ccn2)cc1C1=Cc2cnc(Nc3cnn(C)c3)nc2N2CCN=C12
F (%): 56
//
SMILES ENTRY: Cc1cc(F)c(NC(=O)c2cc(C(C)(C)C#N)ccn2)cc1C1=Cc2cnc(NC3COC3)nc2N2CCN=C12
F (%): 58.1
//
SMILES ENTRY: CNc1ncc2c(n1)N1CCN=C1C(c1cc(NC(=O)c3cc(C(C)(C)C#N)ccn3)ccc1C)=C2
F (%): 74.6

Now consider the entry below.
For the compound `Cc1cc(F)c(NC(=O)c2cc(C(F)(F)F)ccn2)cc1C1=Cc2cnc(NC3COC3)nc2N2CCN=C12` , give its reported F. 66.7

###

SUBJECT OF TEST: SRC (Homo sapiens, UniProt P12931)
Construct: purchased Carna Biosciences
Sequence (P12931 whole entry): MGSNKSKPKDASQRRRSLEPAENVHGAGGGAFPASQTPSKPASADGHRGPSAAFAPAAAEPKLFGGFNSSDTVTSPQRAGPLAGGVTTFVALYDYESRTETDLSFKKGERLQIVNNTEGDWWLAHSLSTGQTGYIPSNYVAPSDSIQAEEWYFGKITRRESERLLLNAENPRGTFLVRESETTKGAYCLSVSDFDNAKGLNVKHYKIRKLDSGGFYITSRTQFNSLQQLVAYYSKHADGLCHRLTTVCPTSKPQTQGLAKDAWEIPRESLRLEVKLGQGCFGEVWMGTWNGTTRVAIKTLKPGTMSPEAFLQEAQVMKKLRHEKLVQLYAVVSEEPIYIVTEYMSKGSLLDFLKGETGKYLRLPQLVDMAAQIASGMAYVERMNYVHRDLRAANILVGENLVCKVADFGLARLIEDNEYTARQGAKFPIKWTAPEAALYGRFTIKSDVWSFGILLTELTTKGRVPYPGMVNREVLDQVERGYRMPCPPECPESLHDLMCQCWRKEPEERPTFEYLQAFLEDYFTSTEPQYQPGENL
MEASUREMENT PROTOCOL: In vitro kinase assay, SRC (Caliper EZ Reader conversion)
Format: biochemical
pIC50: −log10 of the molar value.
READOUT KIND: pIC50

Give SRC (Homo sapiens, UniProt P12931) pIC50 for the following molecule: Fc1cc(N2CCNCC2)ccc1Nc1ncc2c(n1)N1CCN=C1C(c1ccc(Cl)cc1Cl)=C2 [Compound 7] > 7.00

###

SUBJECT OF TEST: HPK1 (MAP4K1) (Homo sapiens, UniProt Q92918)
Sequence (Q92918 whole entry, species assumed): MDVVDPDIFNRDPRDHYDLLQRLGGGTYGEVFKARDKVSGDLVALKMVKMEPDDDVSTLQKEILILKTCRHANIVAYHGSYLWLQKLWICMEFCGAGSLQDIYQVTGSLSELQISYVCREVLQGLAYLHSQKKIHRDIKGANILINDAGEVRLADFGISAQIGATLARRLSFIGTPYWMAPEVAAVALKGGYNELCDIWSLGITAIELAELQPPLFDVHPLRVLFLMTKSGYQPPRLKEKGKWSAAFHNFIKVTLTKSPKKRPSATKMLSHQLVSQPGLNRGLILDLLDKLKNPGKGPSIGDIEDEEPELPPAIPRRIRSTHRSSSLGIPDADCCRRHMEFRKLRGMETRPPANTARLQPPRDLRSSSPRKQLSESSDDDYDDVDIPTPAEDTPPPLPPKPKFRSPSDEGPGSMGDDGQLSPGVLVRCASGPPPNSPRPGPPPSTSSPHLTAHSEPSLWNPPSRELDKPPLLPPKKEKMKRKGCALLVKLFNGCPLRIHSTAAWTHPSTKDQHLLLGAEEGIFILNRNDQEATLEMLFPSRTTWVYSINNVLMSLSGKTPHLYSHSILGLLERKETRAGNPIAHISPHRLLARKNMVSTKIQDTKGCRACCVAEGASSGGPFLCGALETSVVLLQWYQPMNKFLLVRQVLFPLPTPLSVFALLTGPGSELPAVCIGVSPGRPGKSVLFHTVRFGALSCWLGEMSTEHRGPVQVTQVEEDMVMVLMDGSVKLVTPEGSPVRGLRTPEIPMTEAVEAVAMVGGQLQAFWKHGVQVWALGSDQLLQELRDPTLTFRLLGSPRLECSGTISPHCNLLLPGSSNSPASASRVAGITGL
READOUT KIND: IC50

Past entries and their recorded results:
MOLECULE: CNc1ncc2c(n1)N1CCN=C1C(c1cc(NC(=O)c3cccc(C(C)(C)O)c3)ccc1C)=C2 [Compound 170]
READOUT KIND: IC50
REPORTED RESULT: < 0.1 µM
//
MOLECULE: CNc1ncc2c(n1)N1CCN=C1C(c1cc(NC(=O)c3cc(C(F)(F)F)ccn3)ccc1C)=N2 [Compound 124]
READOUT KIND: IC50
REPORTED RESULT: 0.1 to 10 µM
//
MOLECULE: Cc1ccc(Nc2ncc3c(n2)N2CCN=C2C(c2ccccc2Cl)=C3)cn1 [Compound 101]
READOUT KIND: IC50
REPORTED RESULT: 0.1 to 10 µM
//
MOLECULE: Cc1ccc(NC(=O)c2cc(C(F)(F)F)ccn2)cc1C1=Cc2cnc(Nc3ccn[nH]3)nc2N2CCN=C12 [Compound 240]
READOUT KIND: IC50
REPORTED RESULT: < 0.1 µM
//
MOLECULE: CNc1ncc2c(n1)N1CCN=C1C(c1cc(NC(=O)c3cc(C(F)(F)F)ccn3)ccc1C)=C2 [Compound 107]
READOUT KIND: IC50
REPORTED RESULT: 0.1 to 10 µM

For the molecule COc1ccncc1Nc1ncc2c(n1)N1CCN=C1C(c1cc(NC(=O)c3cc(C(F)(F)F)ccn3)ccc1C)=C2 [Compound 223] , give its reported IC50. 0.1 to 10 µM

For the molecule CNc1ncc2c(n1)N1C[C@@H](C)N=C1C(c1cc(NC(=O)c3cc(C(F)(F)F)ccn3)ccc1C)=C2 [Compound 127] , give its reported IC50. 0.1 to 10 µM

For the molecule CNc1ncc2c(n1)N1CCN=C1C(c1cc(NC(=O)C3CCNC(C(F)(F)F)C3)ccc1C)=C2 (stereo not drawn) [Compound 155] , give its reported IC50. > 10 µM

For the molecule CNc1ncc2c(n1)N1CCN=C1C(c1cc(NC(=O)c3cc(C(F)(F)F)ccn3)ccc1C)=C2C [Compound 120] , give its reported IC50. 0.1 to 10 µM

For the molecule COCCNc1ncc2c(n1)N1CCN=C1C(c1cc(NC(=O)c3cc(C(F)(F)F)ccn3)ccc1C)=C2 [Compound 112] , give its reported IC50. 0.1 to 10 µM

For the molecule CNc1ncc2c(n1)N1CCN=C1C(c1cc(NC(=O)c3cncc(Cl)c3)ccc1C)=C2 [Compound 160] , give its reported IC50. > 10 µM

For the molecule CNc1ncc2c(n1)N1CCN=C1C(c1cc(NC(=O)NCCC(F)(F)F)c(F)cc1C)=C2 [Compound 316] , give its reported IC50. > 10 µM

For the molecule Cc1ccc(NC(=O)c2cc(C(F)(F)F)ccn2)cc1C1=Cc2cnc(Nc3ccc(F)cc3)nc2N2CCN=C12 [Compound 227] , give its reported IC50. < 0.1 µM

For the molecule CNc1ncc2c(n1)N1CCN=C1C(c1cc(NS(=O)(=O)c3cccc(C(F)(F)F)c3)ccc1C)=C2 [Compound 283] , give its reported IC50. > 10 µM

For the molecule CNc1ncc2c(n1)N1CCN=C1C(c1cc(NC(=O)c3cc(C(F)(F)F)cc(-n4cnc(C)c4)n3)ccc1C)=C2 [Compound 157] , give its reported IC50. 0.1 to 10 µM
